System: Escherichia coli
Test: Antibacterial activity against Escherichia coli W3110PA replaced with Pseudomonas aeruginosa lpxC gene by NCCLS assay
Type: functional
Experimental readout: log10 MIC (log10 of the value in µg/mL)

Query smiles | log10 MIC
C[C@@H](O)[C@H](NC(=O)c1ccc(C#CC#Cc2ccccc2)cc1)C(=O)NO | -0.15
C[C@@H](O)[C@H](NC(=O)c1ccc(C#CC#Cc2ccccc2N)cc1)C(=O)NO | 0.92
C[C@@H](O)[C@H](NC(=O)c1ccc(C#Cc2ccc(CN3CCOCC3)cc2)cc1)C(=O)NO | 0.11
C[C@@H](O)[C@H](NC(=O)c1ccc(C#CC#Cc2cccc(N)c2)cc1)C(=O)NO | 0.11
C[C@@H](O)[C@H](NC(=O)c1ccc(C#CC#Cc2ccc(N)cc2)cc1)C(=O)NO | -0.30
C[C@H](O)[C@H](NC(=O)c1ccc(C#CC#Cc2ccc(N)cc2)cc1)C(=O)NO | -0.10
